Experiment: self-splicing fitness, log relative to wild type (ln ratio); higher = more splicing; Tetrahymena group I intron in knt gene, E. coli kanamycin selection, DiMSum; sequences stand for … in CUCUCU…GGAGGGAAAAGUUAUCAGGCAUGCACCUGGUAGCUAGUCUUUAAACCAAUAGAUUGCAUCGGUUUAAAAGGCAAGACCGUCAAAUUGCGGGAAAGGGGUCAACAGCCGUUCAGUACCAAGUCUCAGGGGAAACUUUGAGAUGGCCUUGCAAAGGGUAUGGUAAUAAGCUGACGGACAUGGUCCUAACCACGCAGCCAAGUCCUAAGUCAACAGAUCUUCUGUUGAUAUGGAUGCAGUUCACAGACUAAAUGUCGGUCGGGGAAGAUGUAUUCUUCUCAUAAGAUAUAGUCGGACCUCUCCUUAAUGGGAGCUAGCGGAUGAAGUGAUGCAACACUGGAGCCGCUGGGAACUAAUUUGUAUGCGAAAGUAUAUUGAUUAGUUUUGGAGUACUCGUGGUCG;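 also: selection with 25 µg/mL kanamycin versus none on LB agar overnight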
Settings: 37 °C
Records here are stratified by self-splicing fitness (ln); strata: small value (below -2), mid value (-2 to below -0.5), large value (-0.5 or more)

input_sequence=AUUGAGCAAUAUUACGUACG class="mid value"
input_sequence=UGACAGCAAUAUUACGUCUA class="large value"
input_sequence=UGGCAGCAAUAUUACGAUAA class="large value"
input_sequence=CUAUAGCAAUAUUACGAAGG class="mid value"
input_sequence=AUCUAGCAAUAUUACGCUCC class="mid value"
input_sequence=UCCCAGCAAUAUUACGGAUG class="mid value"
input_sequence=UAGCAGCAAUAUUACGCCAU class="small value"
input_sequence=ACCAAGCAAUAUUACGUUCU class="mid value"
input_sequence=UAGUAGCAAUAUUACGUGUC class="small value"
input_sequence=AUUCAGCAAUAUUACGGAAC class="mid value"
input_sequence=GAUAAGCAAUAUUACGGUAA class="mid value"
input_sequence=CCCCAGCAAUAUUACGUGCA class="small value"
input_sequence=UAUAAGCAAUAUUACGGACC class="small value"
input_sequence=UGGAAGCAAUAUUACGAAGG class="large value"
input_sequence=CGUGAGCAAUAUUACGGUCU class="small value"
input_sequence=GCCUAGCAAUAUUACGUAUG class="small value"
input_sequence=GCGAAGCAAUAUUACGGAAG class="mid value"
input_sequence=AGCGAGCAAUAUUACGAGUC class="small value"
input_sequence=AAGGAGCAAUAUUACGUGUG class="mid value"
input_sequence=CGAGAGCAAUAUUACGACUG class="large value"
input_sequence=CUACAGCAAUAUUACGCGUC class="small value"
input_sequence=AUAAAGCAAUAUUACGUGCA class="large value"
input_sequence=CUCCAGCAAUAUUACGUGAU class="mid value"
input_sequence=GAGAAGCAAUAUUACGGGAG class="mid value"
input_sequence=AUGUAGCAAUAUUACGCUCA class="large value"
input_sequence=GCGUAGCAAUAUUACGGGCG class="small value"
input_sequence=GUCAAGCAAUAUUACGCUGC class="small value"
input_sequence=AGAAAGCAAUAUUACGGACC class="large value"
input_sequence=GCCCAGCAAUAUUACGGAAU class="large value"
input_sequence=CUGUAGCAAUAUUACGGCCU class="small value"
input_sequence=GCACAGCAAUAUUACGCGUG class="small value"
input_sequence=GUACAGCAAUAUUACGCCCG class="mid value"
input_sequence=AAGAAGCAAUAUUACGAUAA class="mid value"
input_sequence=CGGUAGCAAUAUUACGGGCG class="large value"
input_sequence=AACCAGCAAUAUUACGACAC class="large value"
input_sequence=CCGGAGCAAUAUUACGGAGU class="small value"
input_sequence=AUGCAGCAAUAUUACGCCUU class="large value"
input_sequence=GCGGAGCAAUAUUACGCAUA class="small value"
input_sequence=CGGAAGCAAUAUUACGGGUC class="small value"
input_sequence=GGAUAGCAAUAUUACGACAA class="mid value"
input_sequence=UUUCAGCAAUAUUACGGACU class="large value"
input_sequence=ACAUAGCAAUAUUACGUAUG class="mid value"
input_sequence=UAGGAGCAAUAUUACGCAAU class="mid value"
input_sequence=GCUAAGCAAUAUUACGCGCG class="large value"
input_sequence=ACUCAGCAAUAUUACGAGAA class="mid value"
input_sequence=CAUGAGCAAUAUUACGCGCU class="small value"
input_sequence=UGGCAGCAAUAUUACGAUUA class="large value"
input_sequence=GACUAGCAAUAUUACGAACU class="large value"
input_sequence=GGUUAGCAAUAUUACGAGUU class="large value"
input_sequence=GGAGAGCAAUAUUACGACGC class="large value"
input_sequence=AUUUAGCAAUAUUACGCUUA class="large value"
input_sequence=CCCGAGCAAUAUUACGCGAU class="small value"
input_sequence=GACUAGCAAUAUUACGAAUC class="mid value"
input_sequence=UCGCAGCAAUAUUACGUCUA class="large value"
input_sequence=GCAGAGCAAUAUUACGGGUA class="small value"
input_sequence=AUUAAGCAAUAUUACGGGGG class="small value"
